Test system: Escherichia coli
Test: Antimicrobial activity against Escherichia coli XL10/vector
Format: functional
Kindly supply the reported MIC values for the records listed here.
One number for each entry, in µg/mL.

Would you please look over these solved cases?
>>> measured_value("CC(C)(O/N=C(\\C(=O)N[C@@H]1C(=O)N2C(C(=O)[O-])=C(C[n+]3ccccc3)CS[C@H]12)c1csc(N)n1)C(=O)O")
0.12
>>> measured_value("CCN1CCN(C(=O)N[C@@H](C(=O)N[C@@H]2C(=O)N3[C@@H]2SC(C)(C)[C@@H]3C(=O)O)c2ccccc2)C(=O)C1=O")
1

Shift focus to the following entry.
Data request: Enter reported MIC observed with Escherichia coli for CO[C@@]1(NC(=O)Cc2cccs2)C(=O)N2C(C(=O)O)=C(COC(N)=O)CS[C@@H]21
Data returned: 1
